Each item that follows carries a reported mass density.
details: 298.15 K; 101.33 kPa; Liquid; Vibrating tube method
Number in kg/m3, nothing else.

Reference set (3 entries):
1) CC[S+]([O-])CC [diethyl sulfoxide]    1009.51
2) C[S+](C)[O-] [dimethyl sulfoxide]    1095.35
3) ClC(Cl)(Cl)Cl [tetrachloromethane]    1584.36

Name the reported mass density value associated with the molecule CCCS(=O)CCC [dipropyl sulfoxide]
957.77

====

conditions: 313.15 K; 101.33 kPa; Liquid; Vibrating tube method
Each item that follows carries a reported mass density.
Number in kg/m3, nothing else.

Reference set (4 entries):
1) CCCS(=O)CCC [dipropyl sulfoxide]    945.5
2) C[S+](C)[O-] [dimethyl sulfoxide]    1080.29
3) ClC(Cl)(Cl)Cl [tetrachloromethane]    1554.96
4) CCCCS(=O)CCCC [dibutyl sulfoxide]    922.34

Turning to the following compound.
Name the reported mass density value associated with the compound CC[S+]([O-])CC [diethyl sulfoxide]
996.4

====

conditions: 298.15 K, Maximal bubble pressure
Parameter: surface tension liquid-gas (mN/m)
Number in mN/m, nothing else.

Reference set (3 entries):
1. ClC(Cl)(Cl)Cl [tetrachloromethane]    24.2
2. CCCS(=O)CCC [dipropyl sulfoxide]    32.6
3. C[S+](C)[O-] [dimethyl sulfoxide]    42.5

Turning to the following compound.
Name the reported surface tension liquid-gas value associated with the compound CC[S+]([O-])CC [diethyl sulfoxide]
34.6

====

Each item that follows carries a reported mass density.
conditions: 303.15 K; 101.33 kPa; Liquid; Vibrating tube method
Number in kg/m3, nothing else.

1) CC[S+]([O-])CC [diethyl sulfoxide]    1005.14
2) CCCS(=O)CCC [dipropyl sulfoxide]    953.67
3) ClC(Cl)(Cl)Cl [tetrachloromethane]    1574.61

Turning to the following molecule.
Name the reported mass density value associated with the molecule C[S+](C)[O-] [dimethyl sulfoxide]
1090.33

====

conditions: 308.15 K, Maximal bubble pressure
Numbers after ± are expanded uncertainties.
Parameter: surface tension liquid-gas
Reply with a number, then the unit it belongs to.

1) ClC(Cl)(Cl)Cl [tetrachloromethane]    23 ± 0.3 mN/m
2) CCCS(=O)CCC [dipropyl sulfoxide]    31.5 ± 0.3 mN/m
3) CC[S+]([O-])CC [diethyl sulfoxide]    34 ± 0.3 mN/m

Name the reported surface tension liquid-gas value associated with the compound C[S+](C)[O-] [dimethyl sulfoxide]
41.5 ± 0.4 mN/m

====

settings: 303.15 K, Maximal bubble pressure
± gives the expanded uncertainty stated by the source.
Each item that follows carries a reported surface tension liquid-gas.

Name the reported surface tension liquid-gas value associated with the molecule ClC(Cl)(Cl)Cl [tetrachloromethane]
23.7 ± 0.3 mN/m

====

settings: 313.15 K, Maximal bubble pressure
surface tension liquid-gas below 30 mN/m gives not fulfilled; surface tension liquid-gas at or above it gives fulfilled.

Please review the entries below; each comes with its answer.
1) CCCCS(=O)CCCC [dibutyl sulfoxide]    not fulfilled
2) CCCS(=O)CCC [dipropyl sulfoxide]    fulfilled
3) C[S+](C)[O-] [dimethyl sulfoxide]    fulfilled
4) ClC(Cl)(Cl)Cl    not fulfilled

Now consider a different molecule.
Could you tell me if the measured surface tension liquid-gas of CC[S+]([O-])CC [diethyl sulfoxide] reaches 30 mN/m or more?
fulfilled
